Origin of measurements: patent US8629112B2

assay_system: CXCR7 (Homo sapiens)
Construct: host or cells: CHO (PathHunter CHO-CXCR7 β-arrestin cells)
Sequence (P25106 whole entry): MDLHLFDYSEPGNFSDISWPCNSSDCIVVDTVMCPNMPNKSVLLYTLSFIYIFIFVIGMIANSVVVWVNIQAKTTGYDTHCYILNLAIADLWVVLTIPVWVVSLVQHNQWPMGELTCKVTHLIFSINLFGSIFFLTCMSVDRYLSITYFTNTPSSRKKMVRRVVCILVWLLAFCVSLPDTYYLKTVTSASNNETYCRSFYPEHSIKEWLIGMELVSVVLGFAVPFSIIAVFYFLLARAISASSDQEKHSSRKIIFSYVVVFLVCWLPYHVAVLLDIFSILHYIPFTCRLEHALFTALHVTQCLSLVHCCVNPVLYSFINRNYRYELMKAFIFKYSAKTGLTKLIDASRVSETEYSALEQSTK
test_details: CXCR7 β-arrestin recruitment assay (PathHunter CHO-CXCR7, agonistic assay)
Type: cell-based
measurement_parameters: CHO CXCR7 β-arrestin cells, agonistic assay, 90 min at 37° C., chemiluminescence; read-out: β-Arrestin EC50
Square brackets hold non-standard residues; d marks the D form. Peptide text beside a SMILES is read from it. 1Nal = N[C@@H](Cc1cccc2ccccc12)C(=O)O; Tiq1c(1S) = O=C(O)[C@H]1NCCc2ccccc21; Tic = O=C(O)[C@@H]1Cc2ccccc2CN1; Aze = O=C(O)[C@@H]1CCN1
observation_type: pEC50
Just so you know, pEC50 here is -log10 of the concentration in molar units; reply with that number alone.

Answered examples (2):
compound: N=C(N)NCCC[C@@H]1NC(=O)[C@H](Cc2c[nH]c3ccccc23)NC(=O)[C@@H](Cc2ccccc2)NC(=O)[C@H](Cc2c[nH]c3ccccc23)NC(=O)[C@@H]2c3ccccc3CCN2C(=O)[C@H]2CCCN2C1=O [Ex. 25, cyclo(-Trp-^DPhe-Trp-Arg-^DPro-Tiq-)] (cyclo(R[dP][Tiq1c(1S)]W[dF]W))
assay_system: CXCR7 (Homo sapiens)
observation_type: pEC50
observed_measurement: 9.40
//
compound: N=C(N)NCCC[C@@H]1NC(=O)[C@H](Cc2ccc(O)cc2)NC(=O)[C@@H](Cc2c[nH]cn2)NC(=O)[C@H](Cc2cccc3ccccc23)NC(=O)[C@@H]2CCN2C(=O)[C@H]2CCCN2C1=O [compound 45, cyclo(-1Nal-^DHis-Tyr-Arg-^DPro-Azt-)] (cyclo([1Nal][dH]YR[dP][Aze]))
assay_system: CXCR7 (Homo sapiens)
observation_type: pEC50
observed_measurement: 7.35

For reference, reported pEC50 for N=C(N)NCCC[C@@H]1NC(=O)[C@H](Cc2c[nH]c3ccccc23)NC(=O)[C@@H](CCCNC(=N)N)NC(=O)[C@H](Cc2cccc3ccccc23)NC(=O)[C@@H]2Cc3ccccc3CN2C(=O)[C@H]2CCCN2C1=O [compound 28, cyclo(-1Nal-^DArg-Trp-Arg-^DPro-Tic-)] (cyclo([1Nal][dR]WR[dP][Tic])) stands at 6.55

---

EC50 overview
assay_system: CXCR7 (Homo sapiens)
Construct: host or cells: CHO (PathHunter CHO-CXCR7 β-arrestin cells)
test_details: CXCR7 β-arrestin recruitment assay (PathHunter CHO-CXCR7, agonistic assay)
Assay type: cell-based
measurement_parameters: CHO CXCR7 β-arrestin cells, agonistic assay, 90 min at 37° C., chemiluminescence; read-out: β-Arrestin EC50
Square brackets hold non-standard residues; d marks the D form. Peptide text beside a SMILES is read from it. Tic = O=C(O)[C@@H]1Cc2ccccc2CN1
Give your result in nM as a bare value.

Answered examples (2):
compound: N=C(N)NCCC[C@@H]1NC(=O)[C@@H]2Cc3ccccc3CN2C(=O)[C@H]2CCCN2C(=O)[C@H](CCCNC(=N)N)NC(=O)[C@H](Cc2c[nH]c3ccccc23)NC(=O)[C@@H](Cc2c[nH]cn2)NC1=O [compound 36, cyclo(-Arg-^DHis-Trp-Arg-^DPro-Tic-)] (cyclo(R[dH]WR[dP][Tic]))
assay_system: CXCR7 (Homo sapiens)
observation_type: EC50
observed_measurement: 144
//
compound: N=C(N)NCCC[C@@H]1NC(=O)[C@H](Cc2c[nH]cn2)NC(=O)[C@@H](CCCNC(=N)N)NC(=O)[C@H](Cc2c[nH]c3ccccc23)NC(=O)[C@@H]2Cc3ccccc3CN2C(=O)[C@H]2CCCN2C1=O [compound 37, cyclo(-Trp-^DArg-His-Arg-^DPro-Tic-)] (cyclo(HR[dP][Tic]W[dR]))
assay_system: CXCR7 (Homo sapiens)
observation_type: EC50
observed_measurement: 348

In the following, a different compound is considered.
For reference, reported EC50 for O=C1N[C@@H](Cc2ccc(O)cc2)C(=O)N2CCC[C@@H]2C(=O)N2Cc3ccccc3C[C@H]2C(=O)N[C@@H](Cc2c[nH]c3ccccc23)C(=O)N[C@H](Cc2ccccc2)C(=O)N[C@H]1Cc1c[nH]c2ccccc12 [compound 24, cyclo(-Trp-^DPhe-Trp-Tyr-^DPro-Tic-)] (cyclo([Tic]W[dF]WY[dP])) stands at 94.5
